Reported T/C values are given for each entry in this list.
System: P388 leukemia ip, CD2F1 mice, survival T/C
experimentNotes: NCI In Vivo Anticancer Drug Screen. Data for tumor model P388 Leukemia (intraperitoneal) in CD2F1 (CDF1) mice
experimentalSetup: endpoint: median survival time; dose: 200.0 mg/kg/injection; schedule: Q01DX005 (ip); vehicle: saline; higher = longer survival
Toxic doses and inconclusive results are not listed.

Exercise: Returns the measured T/C for the input molecule. Input: CN(C)C1C(=O)C(C(=O)NCN2CCN(CCO)CC2)=C(O)C2(O)C(=O)C3=C(O)c4c(O)cccc4C(C)(O)C3CC12 (centres undefined)
Key: 95 % of control

Exercise: Given the entry Nc1ccc(C(=O)Nc2ccc(C(=O)Nc3ccc4cc(S(=O)(=O)O)cc(S(=O)(=O)O)c4c3)cc2)cc1 , report its measured T/C.
Key: 103 % of control

Exercise: Bench note: what T/C did CC(O)C(=O)NCCO (centres undefined) show?
Key: 100 % of control

Exercise: Fill in the blank: the reported T/C of Nc1nnc2nc(C3(c4nc5nnc(N)n5[nH]c4=O)CCCC3=O)c(=O)[nH]n12 is ____.
Key: 106 % of control

Exercise: Tell me the measured T/C of CCN(CC)CCOC(=O)C(C(=O)OCCN(CC)CC)C1CCCC1 , please.
Key: 100 % of control

Exercise: Entry CCN(CC)CCCNc1nccc2ccc(OC)cc12 has what T/C?
Key: 97 % of control

Exercise: GET /values?readout=T/C&item= CC(C)(C)NCC(O)c1ccc(O)c(CO)n1 (centres undefined)
Key: 95 % of control

Exercise: I would be grateful if you could share the reported T/C for COC1(CO)OCC(O)C(O)C1O (centres undefined) .
Key: 101 % of control

Exercise: Give the measured T/C of c1ccc(C23CCCCC2=Nc2ccccc23)cc1 (centres undefined) .
Key: 107 % of control

----------
Tested on: P388 leukemia ip, CD2F1 mice, survival T/C
experimentNotes: NCI In Vivo Anticancer Drug Screen. Data for tumor model P388 Leukemia (intraperitoneal) in CD2F1 (CDF1) mice
experimentalSetup: endpoint: median survival time; dose: 400.0 mg/kg/injection; schedule: Q01DX001 (ip); vehicle: saline with Tween-80; higher = longer survival
Inconclusive results and toxic doses are left out.
property: T/C

1. COC(=O)C(Cc1cc(OC)c(OC)c(OC)c1I)C(=O)OC ... 103 % of control
2. COc1c2occc2c(S(=O)(=O)Cl)c2ccc(=O)oc12 ... 100 % of control
3. c1ccc2c(c1)OC1(CCSCC1)O2 ... 100 % of control
4. CSC(/C=C/c1ccccc1)=Nc1ccccc1 ... 101 % of control
5. Brc1cnc2nc(Cc3ccccc3)[nH]c2c1 ... 97 % of control
6. Cc1cc(NC(=O)c2ccccc2O)n(-c2ccccc2)n1 ... 95 % of control

Exercise: Returns the measured T/C for the input compound. Input: CC12c3ccccc3CCN1C(c1ccccc1)=NN2c1ccccc1 (stereo not given)
Key: 102 % of control

Exercise: If you can, please state the reported T/C value of Cc1cc2nc(C(C)(C)F)c(=O)[nH]c2cc1C .
Key: 96 % of control

Exercise: Can you share its T/C? I mean this compound: Cc1c(N=Nc2cccc(Cl)c2)c(-c2ccccc2)nn1C(N)=S
Key: 90 % of control

Exercise: // query T/C value for entry CC1=C(I)C2(CCCCC2)OC1=O
Key: 93 % of control

----------
Test system: P388 leukemia ip, CD2F1 mice, survival T/C
experimentNotes: NCI In Vivo Anticancer Drug Screen. Data for tumor model P388 Leukemia (intraperitoneal) in CD2F1 (CDF1) mice
experimentalSetup: endpoint: median survival time; dose: 240.0 mg/kg/injection; schedule: Q01DX005 (ip); vehicle: saline with Tween-80; higher = longer survival
Toxic doses and inconclusive results are not listed.
property: T/C

Check out these entries, answers already filled in.
1) CCn1c2ccccc2n2c(=O)cc(-c3ccccc3)c(C#N)c12 ... 97 % of control
2) Nc1cccc2[nH]c(=O)c3ccccc3c12 ... 106 % of control

Then there is this compound:
Exercise: Please look up its T/C: COC(=O)c1nc2nnc(NC(=O)Nc3ccc(Cl)cc3)n2c(-c2ccc(Cl)cc2)c1C
Key: 100 % of control

----------
Test system: P388 leukemia ip, CD2F1 mice, survival T/C
experimentNotes: NCI In Vivo Anticancer Drug Screen. Data for tumor model P388 Leukemia (intraperitoneal) in CD2F1 (CDF1) mice
experimentalSetup: endpoint: median survival time; dose: 100.0 mg/kg/injection; schedule: Q04DX003 (ip); vehicle: saline with Tween-80; higher = longer survival
Inconclusive results and toxic doses are left out.
Quick list: T/C per entry.

1) CCOP(=O)(Nc1cc2c(=O)n(C)cnc2cc1Cl)OCC ... 105 % of control
2) Cc1cc(Cl)ccc1NC(=O)COc1ccc(Cl)cc1Cl ... 95 % of control
3) NNc1cccc(C(F)(F)F)c1 ... 100 % of control
4) O=c1[nH]n(-c2ccccc2)c2ccccc12 ... 95 % of control
5) O=C(NCCc1ccccc1)c1ccccc1 ... 90 % of control

Exercise: Reported T/C for NC(=O)Nc1n[nH]c(-c2ccccc2)n1 : what is it?
Key: 90 % of control

Exercise: Using the record for c1ccc(-c2nnc(-c3ccccc3)nn2)cc1 , report its T/C.
Key: 100 % of control

----------
Tested on: P388 leukemia ip, CD2F1 mice, survival T/C
experimentNotes: NCI In Vivo Anticancer Drug Screen. Data for tumor model P388 Leukemia (intraperitoneal) in CD2F1 (CDF1) mice
experimentalSetup: endpoint: median survival time; dose: 50.0 mg/kg/injection; schedule: Q01DX005 (ip); vehicle: saline with Tween-80
Inconclusive results and toxic doses are left out. Rule for the calls: active = survival T/C of 150% or more; inactive = T/C below 125% in these data.
Would you mind answering with one of these outcomes? 1 for active, -1 for inactive

Examples with answers:
1. CN(Cc1ccccc1)N=NCc1ccccc1 ... 1
2. Cc1cc[n+](C2=C(Nc3cc(C)cc(C)c3)C(=O)c3ccccc3C2=O)cc1 ... -1
3. CC(C)C(NC=O)C(=O)O (stereo unspecified) ... -1
4. CSC(SC)=C1CCCC(=C(SC)SC)C1=O ... -1
5. CC(=O)c1ccccc1NC(=O)COc1ccccc1OCC(=O)Nc1ccccc1C(C)=O ... -1

Exercise: Just curious, what result did C=C1C[C@H](C2OC3OC(C)(C)OC3C2OCc2ccccc2)OC1=O (stereo partly specified) get here?
Key: -1

----------
Tested on: P388 leukemia ip, CD2F1 mice, survival T/C
experimentNotes: NCI In Vivo Anticancer Drug Screen. Data for tumor model P388 Leukemia (intraperitoneal) in CD2F1 (CDF1) mice
experimentalSetup: endpoint: median survival time; dose: 50.0 mg/kg/injection; schedule: Q01DX009 (ip); vehicle: distilled water + Tween-80
Toxic doses and inconclusive results are not listed. Rule for the calls: active = survival T/C of 150% or more; inactive = T/C below 125% in these data.
Allowed answers: 1 = active, -1 = inactive

1. CC(O)CNC1=C(Cl)C(=O)c2ccccc2C1=O (stereo unspecified) ... -1

Exercise: Hi team, can someone confirm the assay call for O=C(Nc1ccc([N+](=O)[O-])cc1)Nc1nccs1 ?
Key: -1

Exercise: Please share the test call associated with O=C(On1nnc2ccccc2c1=O)c1ccccc1 .
Key: -1

Exercise: Hi, sorry to bother you, what did the test record for O=[N+]([O-])c1cc(Br)c2c(c1)CCN2 ?
Key: -1

Exercise: Test call for this molecule, please: O=C(O)C1=C(C(=O)Nc2ccc(NC(=O)C3=C(C(=O)O)CCC3)cc2)CCC1
Key: -1

Exercise: Please indicate how the test categorized O=C(O)/C=N/NS(=O)(=O)/C=C/c1ccccc1 .
Key: 1

----------
Listed here are compounds together with their documented T/C.
Tested on: P388 leukemia ip, CD2F1 mice, survival T/C
experimentNotes: NCI In Vivo Anticancer Drug Screen. Data for tumor model P388 Leukemia (intraperitoneal) in CD2F1 (CDF1) mice
experimentalSetup: endpoint: median survival time; dose: 50.0 mg/kg/injection; schedule: Q01DX005 (ip); vehicle: Klucel (hydroxypropylcellulose) (HPC); higher = longer survival
Toxic doses and inconclusive results are not listed.

Worked examples follow.
1. O=c1ccn(C2OC(COC(c3ccccc3)(c3ccccc3)c3ccccc3)C(OC(c3ccccc3)(c3ccccc3)c3ccccc3)C2O)c(=O)[nH]1 (stereo not given) ... 95 % of control
2. CC1CCCC(C)N1C(=O)OCC12COC3(C)CCC(C)(OC1)N23 (stereo not given) ... 95 % of control
3. CCN1C(SC)=NC(=O)C1(c1ccc(C)cc1)c1ccc(C)cc1 ... 100 % of control
4. CCN(CC)CCNC(=O)c1nn(C)c(=O)[nH]c1=O ... 108 % of control
5. COc1cc(CNc2cccc(F)c2)cc(OC)c1OC ... 100 % of control

Exercise: # T/C lookup, item Cc1cc2c(C#N)c3ccccc3c(=O)n2c2ccccc12
Key: 98 % of control

Exercise: Could you share which T/C value was measured for CCOC(=O)n1oc2ccccc2c1=O ?
Key: 99 % of control

Exercise: # input compound: COC(=O)C1C2C1C1C=CC2n2c(=O)n(-c3ccccc3)c(=O)n21 (stereo not given) ; wanted: its T/C
Key: 97 % of control

Exercise: I am curious: what T/C value has been reported for Cc1cccc(C)c1OCc1n[nH]c(=S)n1-c1ccccc1 ?
Key: 89 % of control

Exercise: Dear colleague, I am looking for the recorded T/C of the following compound: CC(C)(O)c1cc(=O)n(Cc2ccccc2)[nH]1
Key: 106 % of control

Exercise: What value of T/C has been reported for the following compound? CCOC(=O)C1CCc2c(OC)c(C)cc(C)c2C1=O (stereo not given)
Key: 103 % of control

Exercise: Recorded T/C of CC(=O)NC(CCS)C(N)=O (stereo not given) , please.
Key: 87 % of control

Exercise: Look up T/C: O=c1cccccc1O.O=c1cccccc1O.O=c1cccccc1O.[Ru]
Key: 96 % of control

Exercise: Look up T/C for this compound: CC(C)(C)OC(=O)NCS(=O)(=O)N(Cc1ccccc1)Cc1ccccc1
Key: 102 % of control
